target: pooled human IgG
reported endpoint: Enzyme Activity Endpoint Assay (purified): Fc

Past entries and their recorded results:
PRT-233 (protein) MEVVEVWPYGQNPNGKTEILSQTEDSESLQRLRDIEDFQAEKKMQNVVYTKWLDGVDVKDHDFRKIVDGNIAYYATPLLNGRGFYDINKDFNRDSDKCAAAVAANMFHYWLDRNRDNVDRFLRQNPEKHGIIELPDGQLKLSDFLNTYESDHGYRDKSKLFDFISNNFNGPVWTDKLLDNYINGYAYNYKYGRTIEDPTKNTSKINFFKEVFNEKILTNNHSIRNQNEFSVLLSEALYTGKAIGLSYGPAGLRHSLGHIISVWGADLDADGNVVAIYVTDSDDKKLTIGDERVGLKRYKISTDDENRLRLTAYEETHNTGGQIRGLWTLDTGKYAWADYFDKTEQTGTDQAEQLEHHHHHH
376 ng/µL
PRT-150 (protein) MANQEIRYSEVTPYHVTSVWTKGVTPPANFTQGEDVFHAPYVANQGWYDITKTFNGKDDLLCGAATAGNMLHWWFDQNKDQIKRYLEEHPEKQKINFNGEQMFDVKEAIDTKNHQLDSKLFEYFKEKAFPYLSTKHLGVFPDHVIDMFINGYRLSLTNHGPTPVKRQEKDPRGGIFDAVFGRGDQTKLLTSRHDFKEKNLKEISDLIKKELTEGKALGLSHTYANVRINHVINLWGADFDSNGNLKAIYVTDSDSNASIGMKKYFVGVNSAGKVAISAKEIKEDNIGAQVLGLFTLSTGQKSWNKTN
161 ng/µL
PRT-144 (protein) MANQEIRYSEVTPYHITSVWTKGVTPPANFTQGEDVFHAPYVANQGWYDITKTFNGKDDLLCGAATAGNMLHWWFDQNKDQIKRYLEEHPEKQKINFNGEQMFDVKEAIDTKNHQLDSKLFEYFKEKAFPYLSTKHLGVFPDHVIDMFINGYRLSLTNHGPTPVKEGSKDPRGGIFDAVFTRGDQSKLLTSRHDFKEKTLNDISQLIKQELQSGKALGLSHTYANVRINHVINLWGADFDAEGNLEAIYVTDSDSNASIGMKKYFVGKNSAGKVAISAKEIKEDNIGAQVLGLFTLSTGQDSWNQTN
151 ng/µL

Next, consider the following protein.
In: Could you tell me which Enzyme Activity Endpoint Assay (purified): Fc is on file for PRT-57 (protein) MANQEIRYSEVTPYHVTSVWTKGVTPPANFTQGEDVFHAPYVANQGWYDINKTFNGKDDLLCGAATAGNMLHWWFDQNKDYIDRYLEEHPEKQKINFNGEQMFDVKEAIDTKNHQLDSKLFEYFKEKAFPYLSTKHLGVFPDLVIDMFINGYRLSLTNHGPTPVKEGSKDPRGGFFDAVFGRGDQSKLLTSRHDFKEKNLKEISDLIKKELTEGKALGLSHTYANVRINHVINLWGADFDSNGNLKAIYVTDSDSNASIGMKKYFVGVNSAGKVAISAKEIKEDNIGAQVLGLFTLSTGQDSWNQTN ?
Out: 52 ng/µL

src = patent US20250027068
